- Assay text: protein stability index of a GFP-peptide fusion (GPS, HEK-293T) (PSI 1-6); higher = more stable;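 further: 24-mer peptide tiles fused after GFP, lentivirally expressed, FACS-sorted into six equal bins by GFP/DsRed ratio, decoded by Illumina sequencing, PSI is the read-weighted mean bin number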
- Experimental context: treatment: DMSO; c terminus: a fixed tail appended
Measurement kind: protein stability index
Enter the number alone.

Worked cases, protein stability index given:
Sequence record	protein stability index
KTEDENKQSFLDGGKGHHLPSENL [TOR1AIP2]	5.4
PPDRTLGCWATDAAPAAGLCGAGS [RSPH3]	3.79
NWPKNSNGVTQKASAPTYPSLYSS [NANOGP8]	3.53
VRKWRVKSALGAMGQWQLEVGDPA [DPCD]	2.46
LLELAGEVTDTGDPIVRPLWWIAP [MYORG]	2.46

Prompt: Fill in the blank: the reported protein stability index of KNVELKFVDSIRRQFEFSVDSFQI [TENT5C] is ____.
Completion: 2.29

Prompt: Fill in the blank: the reported protein stability index of PQDYKKRLSVELTSSLFRTEPMAW [CTNNB1] is ____.
Completion: 2.67

Prompt: Fill in the blank: the reported protein stability index of FAPFIVYYFIMACDQYSCALTGPV [DHCR7] is ____.
Completion: 3.01

Prompt: Fill in the blank: the reported protein stability index of RRVLQGLEIELQSQLSMKASLENS [KRT16] is ____.
Completion: 2.8

Prompt: Fill in the blank: the reported protein stability index of RGSETTYESSADIAGDEGTQIPAD [TAF7L] is ____.
Completion: 5.58

Prompt: Fill in the blank: the reported protein stability index of AEMPHTETVSPLPSSMDLLIQDSP [NANOGP8] is ____.
Completion: 5.09

Prompt: Fill in the blank: the reported protein stability index of TKSPCESNNKKNDEMQEVPNRVLA [SPANXN3] is ____.
Completion: 5.22

Prompt: Fill in the blank: the reported protein stability index of LPLGIKVYEDETKVVHAVDGTAEN [PALM] is ____.
Completion: 5.02

----------
- Assay text: protein stability index of a GFP-peptide fusion (GPS, HEK-293T) (PSI 1-6); higher = more stable
- Experimental context: treatment: MLN4924 1 uM, 8 h; c terminus: a fixed tail appended
Items are presented alongside their recorded protein stability index.
Enter the number alone.

Prompt: Fill in the blank: the reported protein stability index of CFRFRQSSGRRVSLHCLLDQFDKD [DENND6A] is ____.
Completion: 2.41

Prompt: Fill in the blank: the reported protein stability index of NLPKFCHECGTKYPVEWAKFCCEC [ZC2HC1A] is ____.
Completion: 5.56

Prompt: Fill in the blank: the reported protein stability index of VPEKRDSGMTEVERTYSANCSDFL [SPATS1] is ____.
Completion: 4.89

Prompt: Fill in the blank: the reported protein stability index of TSGQVVAVKKFVESEDDPVVKKIA [CDKL4] is ____.
Completion: 4.82

Prompt: Fill in the blank: the reported protein stability index of VAIFGPPNTYYEGGYFKARLKFPI [CDC34] is ____.
Completion: 2.58

Prompt: Fill in the blank: the reported protein stability index of IALFTARLHHPHKSVQHVVLQALF [PTPN9] is ____.
Completion: 3.13

Prompt: Fill in the blank: the reported protein stability index of LMSYERRQILHLITMMALKVLGEL [TENT5D] is ____.
Completion: 2.39

Prompt: Fill in the blank: the reported protein stability index of TGTPLVAGSPIRHENAVQGSAVEV [ISL2] is ____.
Completion: 4.45

Prompt: Fill in the blank: the reported protein stability index of FGGMKSSGIGREGAKDSYDFFTEI [ALDH8A1] is ____.
Completion: 2.52

Prompt: Fill in the blank: the reported protein stability index of ERHKLKRQDADAWTLYKILDSCKQ [SMG5] is ____.
Completion: 2.9

Prompt: Fill in the blank: the reported protein stability index of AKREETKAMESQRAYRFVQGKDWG [SPOPL] is ____.
Completion: 3.59

Prompt: Fill in the blank: the reported protein stability index of CPSPEALSPEPPVYSLQDFDTLAT [PRKX] is ____.
Completion: 4.84

Prompt: Fill in the blank: the reported protein stability index of IVVIPGKVEEVSLPEQVDIIISEP [CARM1] is ____.
Completion: 2.16

This collection of values is drawn from the supplement of paper PMC10567573.
